# targetOfAssay: canine FcRn (FcRn large subunit with canine beta-2-microglobulin) (canine)
# procedureDetails: SPR pH 7.4, FcRn coupled at high density, IgG 400 nM
measuredParameter: kon (M⁻¹ s⁻¹)
Field: numeric (M⁻¹ s⁻¹). Do not append units.

Worked set:
>  <binder>
anti-NGF canine IgGB antibody, Fc variant N434Y (antibody, part only; not given: Anti-NGF variable domains, not shown: another chain or arm of the molecule) Fc: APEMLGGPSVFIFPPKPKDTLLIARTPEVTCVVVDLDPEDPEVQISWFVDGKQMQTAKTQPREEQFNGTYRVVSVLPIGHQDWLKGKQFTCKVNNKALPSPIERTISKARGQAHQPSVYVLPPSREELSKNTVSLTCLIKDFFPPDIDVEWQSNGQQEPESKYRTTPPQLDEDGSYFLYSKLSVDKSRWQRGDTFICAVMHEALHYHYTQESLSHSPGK

>  <kon [M⁻¹ s⁻¹]>
2.87e+06

$$$$
>  <binder>
anti-NGF canine IgGB antibody, Fc variant A426H + T286L (antibody, part only; not given: Anti-NGF variable domains, not shown: another chain or arm of the molecule; small tags and cut ends) Fc: APEMLGGPSVFIFPPKPKDTLLIARTPEVTCVVVDLDPEDPEVQISWFVDGKQMQLAKTQPREEQFNGTYRVVSVLPIGHQDWLKGKQFTCKVNNKALPSPIERTISKARGQAHQPSVYVLPPSREELSKNTVSLTCLIKDFFPPDIDVEWQSNGQQEPESKYRTTPPQLDEDGSYFLYSKLSVDKSRWQRGDTFICHVMHEALHNHYTQESLSHSPGK

>  <kon [M⁻¹ s⁻¹]>
81200

$$$$
>  <binder>
anti-NGF canine IgGB antibody, Fc variant A426H + D312P (antibody, part only; not given: Anti-NGF variable domains, not shown: another chain or arm of the molecule; small tags and cut ends) Fc: APEMLGGPSVFIFPPKPKDTLLIARTPEVTCVVVDLDPEDPEVQISWFVDGKQMQTAKTQPREEQFNGTYRVVSVLPIGHQPWLKGKQFTCKVNNKALPSPIERTISKARGQAHQPSVYVLPPSREELSKNTVSLTCLIKDFFPPDIDVEWQSNGQQEPESKYRTTPPQLDEDGSYFLYSKLSVDKSRWQRGDTFICHVMHEALHNHYTQESLSHSPGK

>  <kon [M⁻¹ s⁻¹]>
217000

$$$$
>  <binder>
anti-NGF canine IgGB antibody, Fc variant N434R + D312P (antibody, part only; not given: anti-NGF variable domains and light chain, not shown: another chain or arm of the molecule) Fc: APEMLGGPSVFIFPPKPKDTLLIARTPEVTCVVVDLDPEDPEVQISWFVDGKQMQTAKTQPREEQFNGTYRVVSVLPIGHQPWLKGKQFTCKVNNKALPSPIERTISKARGQAHQPSVYVLPPSREELSKNTVSLTCLIKDFFPPDIDVEWQSNGQQEPESKYRTTPPQLDEDGSYFLYSKLSVDKSRWQRGDTFICAVMHEALHRHYTQESLSHSPGK

>  <kon [M⁻¹ s⁻¹]>
4.95e+08

$$$$
>  <binder>
anti-NGF canine IgGB antibody, Fc variant A426Y + D312P (antibody, part only; not given: anti-NGF variable domains and light chain, not shown: another chain or arm of the molecule; small tags and cut ends) Fc: APEMLGGPSVFIFPPKPKDTLLIARTPEVTCVVVDLDPEDPEVQISWFVDGKQMQTAKTQPREEQFNGTYRVVSVLPIGHQPWLKGKQFTCKVNNKALPSPIERTISKARGQAHQPSVYVLPPSREELSKNTVSLTCLIKDFFPPDIDVEWQSNGQQEPESKYRTTPPQLDEDGSYFLYSKLSVDKSRWQRGDTFICYVMHEALHNHYTQESLSHSPGK

>  <kon [M⁻¹ s⁻¹]>
58900

$$$$

Consider the binder shown here: anti-NGF canine IgGB antibody, Fc variant A426Y + T286L (antibody, part only; not given: Anti-NGF variable domains, not shown: another chain or arm of the molecule; small tags and cut ends) Fc: APEMLGGPSVFIFPPKPKDTLLIARTPEVTCVVVDLDPEDPEVQISWFVDGKQMQLAKTQPREEQFNGTYRVVSVLPIGHQDWLKGKQFTCKVNNKALPSPIERTISKARGQAHQPSVYVLPPSREELSKNTVSLTCLIKDFFPPDIDVEWQSNGQQEPESKYRTTPPQLDEDGSYFLYSKLSVDKSRWQRGDTFICYVMHEALHNHYTQESLSHSPGK What is its recorded kon?
82300

Consider the binder shown here: anti-NGF canine IgGB antibody, Fc variant N434R + Y436H (antibody, part only; not given: Anti-NGF variable domains, not shown: another chain or arm of the molecule) Fc: APEMLGGPSVFIFPPKPKDTLLIARTPEVTCVVVDLDPEDPEVQISWFVDGKQMQTAKTQPREEQFNGTYRVVSVLPIGHQDWLKGKQFTCKVNNKALPSPIERTISKARGQAHQPSVYVLPPSREELSKNTVSLTCLIKDFFPPDIDVEWQSNGQQEPESKYRTTPPQLDEDGSYFLYSKLSVDKSRWQRGDTFICAVMHEALHRHHTQESLSHSPGK What is its recorded kon?
666000
